- Substrate: C=CC1=C(C)/C(=C/c2[nH]c(/C=C3N=C(/C=C4\NC(=O)C(C)=C4C=C)C(C)=C\3CCC(=O)O)c(CCC(=O)O)c2C)NC1=O
- ASSAY: steady-state kinetics, A450 bilirubin formation
- Type: biochemical, Synechocystis sp. PCC 6803
- PARTICULARS: 100 μM NADPH, 100 mM citrate pH 5.75
MEASURED_ENDPOINT: kcat/Km (M⁻¹ s⁻¹)
Just the number in M⁻¹ s⁻¹, nothing appended.

Prompt: For Syn BVR (Synechocystis sp. PCC 6803 substr. Kazusa; R246A) (protein, full length, 328 residues; N-terminal His6 tag (pET15b), E. coli C41(DE3); tag cut with thrombin for crystals) MSENFAVATPVRVGIVGTGYAAQRRAEVFRGDRRSQLVSFWGNSEANTAKFADTFGVRPQQSWQALINDPEIDLVLIATINQLHGAIAEAALQAGKHVVLEYPLALTYAMGKKLQQLAREKGKLLHVEHIELLGGVHQAIRQNLGKIGEVFYARYSTIMGQNPAPQRWTYHHQQFGFPLVAALSRISRFTDLFGTVQQVDAQCRFWDQPNPEYFRACLATAYLQFNNGLKAEVIYGKGEVFHQNEAIFTLHGDRGTLIFVGETGRLIQGQTETEITVGSRRGLFRQDTEAVLDYLTTGKPLYVDLEASLYALEVADLCAQACGYKVEN , what is its reported kcat/Km?
Response: 2.2e+06
